This collection of values is drawn from PubChem BioAssay (NCI).

experiment: NCI Yeast Anticancer Drug Screen. Data for the mec2-1 strain (AID 157); settings: S. cerevisiae mec2-1 strain, at 50.0 µM, hits give high values
The panel holds about 79,000 compounds, 15% with a hit somewhere; the sample as a whole holds those more often.
Measured attribute: growth inhibition (%)
// return numeric value only (unit: %, not printed)

Use these answered entries as a reference point.
CC1=CC2OC3CC4OC(=O)/C=C/C=C/C(=O)OCC/C(C)=C/C(=O)OCC2(CC1O)C4(C)C31CO1 (stereo not given); 93.6
CC1=C(C)C(=O)O[C@@H]([C@](C)(O)[C@]2(O)CC[C@@]3(O)[C@@H]4C[C@H]5O[C@]56[C@@H](O)C=CC(=O)[C@]6(C)[C@H]4CC[C@]23C)C1; 24.9
Cc1ccc2[nH]cc(CCN)c2c1; -53.1
ClCc1cccnc1; -2.35

Attention now shifts to the item below.
Which value of growth inhibition has been reported for `C[As](C)(=S)[As](C)(C)=S` in the records?
50.1

----------
assay: NCI Yeast Anticancer Drug Screen. Data for the rad50 strain (AID 155);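 note: 0% = growth of vehicle-only cultures of the same strain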; details: S. cerevisiae rad50 strain growth inhibition; at 50.0 µM; hits give high values
The panel holds about 79,000 compounds, 15% with a hit somewhere; the sample as a whole holds those more often.
Measured attribute: growth inhibition (%)
Numbers only; they are read as %.

See these solved cases before continuing.
ClC1=C(Cl)C2(Cl)C3C4CC(C5OC45)C3C1(Cl)C2(Cl)Cl (configuration not stated); 27.4
CCC1(/C=C/C(C)C)C(=O)NC(=S)NC1=O; -0.75
NS(=O)(=O)c1cc(N(CCCl)CCCl)c([N+](=O)[O-])cc1[N+](=O)[O-]; -72.8
CC1(C(=N)N)CCOC1=O (configuration not stated); 4.4
CCOP(=O)(OCC)C(C#N)Cc1ccccc1OC (configuration not stated); 20.6
O=C1NC(=O)C(=Cc2ccco2)C(=O)N1; -4.4
O=Cc1ccccc1O.O=Cc1ccccc1O.O=Cc1ccccc1O.[La]; -1.05
c1ccc2c3c(ccc2c1)NC1CCCN1C3 (configuration not stated); 21.8

Returns the measured growth inhibition for the input molecule. Input: C[C@]12CC[C@H](O)C=C1CC[C@@H]1[C@@H]2CC[C@]2(C)C(c3ccc(=O)oc3)CC[C@]12O (some centres not stated)
-2.85

For the molecule shown here, `C#CCOC(N)=O` , give the reported growth inhibition.
1.05

So what's the measured growth inhibition for this one? `Nc1ccc2c(c1)Oc1ccc(N)cc1O2`
-22.8

Would you kindly share the measured growth inhibition for `O=C(Nc1ncn[nH]1)C(Cl)(Cl)Cl` ?
-4.1

----------
Assay: NCI Yeast Anticancer Drug Screen. Data for the sgs1 mgt1 strain (AID 161);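 note: 0% = growth of cultures given vehicle only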
Settings: S. cerevisiae sgs1 mgt1 strain, at 50.0 µM, hits give high values
Protocol: Growth inhibition of yeast strains with defined genetic alterations is measured as a screen for potential anti-cancer activity. Selected strains with alterations in DNA damage repair or cell cycle control were exposed to compounds and growth inhibition was measured relative to vehicle treated controls. The strain used in this assay is sgs1 mgt1
Compounds without any hit were thinned out: in the full panel of roughly 79,000, 15% have a hit.
Collected growth inhibition values appear next to each entry.
Kindly answer with a numeric value in %, unit omitted.

COc1cc(O)c2c(O)c3c(=O)cc(C)oc3cc2c1; 20.6
CC(=O)C(C(C)=O)C(C)=O.[Cr]; -3.6
O=C(Nc1ccccc1)N(C1=NCC(CI)S1)c1ccc(F)cc1F (configuration not stated); -6.95

Could you now consider this next compound?
growth inhibition for `CCCCCCNP(=O)(OCC)OCC` ?
5.3

----------
assay: NCI Yeast Anticancer Drug Screen. Data for the bub3 strain (AID 167); conditions: S. cerevisiae bub3 mutant strain, at 50.0 µM
This is part of a sample that, as a whole, favours compounds with a hit. Of some 79,000 tested, about 15% had one in any assay. Activity calls are given as the source filed them. Cut-off read from the data, not from the text of the source: active = growth inhibition above about 70%; inactive = the rest.
Please state which outcome applies, choosing from yes (1) = active, no (0) = inactive

Cc1ccc2[nH]cc(CCN)c2c1; no (0)
O=S(=O)(F)c1cc(Cl)c(O)c(S(=O)(=O)F)c1; no (0)
OC(CN1CC1)C(O)CN1CC1 (stereo unspecified); no (0)

Consider the additional compound presented here.
Record lookup: outcome of this test for O=C1NC(=O)C(F)(n2cc(F)c(=O)[nH]c2=O)C(O)N1 (stereo unspecified) ?
no (0)

----------
test: NCI Yeast Anticancer Drug Screen. Data for the bub3 strain (AID 167); conditions: S. cerevisiae bub3 mutant strain, at 50.0 µM
This is part of a sample that, as a whole, favours compounds with a hit. Of some 79,000 tested, about 15% had one in any assay. Calls of active or inactive are those of the source. No stated cut-off is given here; in the data, active means growth inhibition above about 70%; inactive means the rest.
# valid calls are active, inactive; nothing else

Check the results log: what was the call for O=C1NC(=O)C2(c3ccccc3)CCN1C2=O (stereo not given) ?
inactive

Tell me the assay call for `N#Cc1cccnc1` please.
inactive

Hi, sorry to bother you, what did the test record for O=S(OO)c1cc(Cl)c(O)c(Cl)c1 (stereo not given) ?
inactive

// param item: COP(=S)(c1ccccc1)N(C)C(=O)Oc1cccc(C(C)C)c1 (stereo not given) ; yields the recorded call
inactive

For `CCCCCCCCCCCC(=O)[O][Pb]([CH2]CCC)([CH2]CCC)[O]C(=O)CCCCCCCCCCC` , which call appears in the assay record?
inactive

Short answer needed: outcome of this test for COc1cc(/C=C2\C(O)C3CCN2CC3)cc(OC)c1OC (stereo not given) ?
inactive

Assay outcome for `Clc1ccc(N=c2ccc3ccccc3[oH+]2)cc1.Clc1ccc(N=c2ccc3ccccc3[oH+]2)cc1.[Co]` : what was it?
inactive

Query: recorded result category for O=c1ccn(C2OC(CO)C(O)C2[Se]c2ccccc2)c(=O)[nH]1 (stereo not given) in this test
inactive

Which outcome was assigned to O=[As](O)(O)CC(Br)CBr (stereo not given) in this test?
inactive

Given NC(CSSCC(N)C(=O)c1ccccc1)C(=O)c1ccccc1 (stereo not given) , state the outcome it received in this test.
inactive

Fill in: this test's call for CN1CCCC1c1ccc[n+](C)c1 (stereo not given) is ___
inactive

----------
assay: NCI Yeast Anticancer Drug Screen. Data for the cln2 rad14 strain (AID 165);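 note: 0% = growth equal to vehicle treated cultures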; conditions: S. cerevisiae cln2 rad14 strain, at 50.0 µM, hits give high values
The panel holds about 79,000 compounds, 15% with a hit somewhere; the sample as a whole holds those more often.
Label rule, in plain words: growth inhibition of -30% and up is 1, under -30% is 0.

Field: example entries. Status: answers known.
O=P(N1CCNCC1)(N1CCNCC1)N1CCNCC1; 0
C=C1CCN2CC[C@@H](OC(=O)/C(C)=C\C)[C@@H]12; 1

Okay, now this compound:
Has `C[As+](C)(C)c1ccc(Br)c([N+](=O)[O-])c1` a recorded growth inhibition greater than or equal to -30%?
1

----------
test: NCI Yeast Anticancer Drug Screen. Data for the mlh1 rad18 strain (AID 175); details: S. cerevisiae mlh1 rad18 strain growth inhibition; at 50.0 µM; hits give high values
Compounds without any hit were thinned out: in the full panel of roughly 79,000, 15% have a hit.
Measured attribute: growth inhibition (%)
State the answer as a number, implicitly in %.

Please review the entries below; each comes with its answer.
O=C(CP(=O)(O)O)c1cccs1; -18.9
CCCC(=O)[O-].N.N.N.N.N.[Co+3].[O-][Cl+3]([O-])([O-])[O-]; -21.9
O=c1sc2ccccc2n1CC1CS1 (stereo unspecified); -0.25
CC1=CC(=Nc2ccc(N(CCCl)CCCl)cc2)C=C(C)C1=O; 37.1
O=[N+]([O-])c1ccc(/C=C/c2cc(Cl)ccc2S(=O)(=O)F)c(Cl)c1; -4.35

Now, please, on to the next molecule.
GET /values?readout=growth inhibition&item= `C#[C][Sn]([CH2]CCC)([CH2]CCC)[CH2]CCC`
99.2

----------
test: NCI Yeast Anticancer Drug Screen. Data for the mec2-1 strain (AID 157); conditions: S. cerevisiae mec2-1 strain, at 50.0 µM
The panel holds about 79,000 compounds, 15% with a hit somewhere; the sample as a whole holds those more often. The source made the active and inactive calls. Cut-off read from the data, not from the text of the source: active = growth inhibition above about 70%; inactive = the rest.
Output constraint: value belongs to true for active, false for inactive

COc1cc(/C=C(\C)[N+](=O)[O-])cc(OC)c1; false

Tell me the assay call for `CN1CN(c2ccccc2)C2(CCN(CCCN(C)c3ccc(F)cc3)CC2)C1=O` please.
false

Tell me the recorded outcome of this test for `O=C=Nc1ccc(Br)cc1` .
false

What is the recorded call for this molecule in the test? `CC(C)CC(C)(C)COP(=S)(OCC(C)(C)CC(C)C)OCC(C)(C)CC(C)C`
false

Assay result, entry `Cn1cnc([N+](=O)[O-])c1[Se]c1nc(N)nc2nc[nH]c12` — outcome?
false

Fill in: this test's call for `Nc1c(Cl)c(Cl)nc(C(=O)O)c1Cl` is ___
false

Status in this test for `NNc1nncn1N` ?
false

Could you check what this test reported for C/C(CCl)=N\NC1=NC2(CCCCC2)P(=O)(NNc2ncccn2)S1 (stereo unspecified) ?
false

Record request — test call for `CCCCC[As](=O)(O)O`
false
